molecular target: T1, soluble human CD3 epsilon chain (human, UniProt P07766 23-126); assay: SPR
T1 construct: also called CD3ε
T1 sequence (P07766 23-126 limits assumed): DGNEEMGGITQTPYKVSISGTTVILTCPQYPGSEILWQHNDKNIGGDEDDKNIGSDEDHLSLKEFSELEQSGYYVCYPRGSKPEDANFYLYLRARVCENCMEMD
ENDPOINT NAME: Kd (µM)
Write the value in µM as a bare number.

Input line: What does the data say about its Kd? Entry: TR01H040-E22Hh/none-Hi-Kn010G3/L0216-k0 (antibody, V domains shown, one-arm) VH: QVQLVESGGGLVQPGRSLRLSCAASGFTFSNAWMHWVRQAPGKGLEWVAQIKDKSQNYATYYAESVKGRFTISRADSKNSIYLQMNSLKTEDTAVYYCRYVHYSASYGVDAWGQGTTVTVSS VL: DIVMTQSPLSLPVTPGEPASISCRSSQPLVHSNRNTYLHWYQQKPGQAPRLLIYKVSNRFRGVPDRFSGSGSGTDFTLKISRVEAEDVGVYYCGQGTQVPYTFGQGTKLEIK
Output line: 0.0253
